- System: OVCAR-8 ovarian
- measurement.description: NCI tumour cell line growth inhibition, 48 h
Overview of recorded GI50 for various molecules
property.measured: GI50

INSERT INTO measurements (molecule, value_reported) VALUES
  ('CC(C)(C)n1cc(-c2ccnc(NCCNS(=O)(=O)c3ccc(Br)cc3)c2)c(-c2cccc(O)c2)n1', '2.27 µM'),
  ('COC(=O)C(C)N1C(=O)c2ccccc2I1OC(C)=O (centres undefined)', '> 100 µM'),
  ('CC1Cc2c(N(C)C)ncnc2N(C)c2ccc(Cl)cc21 (centres undefined)', '9.17 µM'),
  ('Cc1nn(-c2ccccc2)c2c1C1C(=C(c3ccc(Cl)cc3)N2)C(=O)Nc2ccccc21 (centres undefined)', '3.26 µM'),
  ('CN1CCCC1c1cccnc1.O=C(O)c1ccccc1O.O=C([O-])c1ccccc1[OH2+].O=C([O-])c1ccccc1[OH2+].O=C([O-])c1ccccc1[OH2+].[Mn+2] (centres undefined)', '> 100 µM'),
  ('COc1cc(C2C3=C(COC3=O)N(CCO)c3cc4c(cc32)CCC4)cc(OC)c1O (centres undefined)', '0.365 µM'),
  ('Cc1ccc(NCSc2ccc(Cl)cc2)cc1', '> 100 µM'),
  ('O=C1c2cccnc2C(=O)c2c1c(C(=O)OCCCN1CCOCC1)c1ccccn21', '< 0.01 µM'),
  ('O=C1OC(c2ccc(O)cc2)(c2ccc(O)cc2)c2cccc3cccc1c23', '16.7 µM');
